Target: T1, PUF4 RNA-binding domain (Saccharomyces cerevisiae, UniProt P25339 537-888)
T1 sequence: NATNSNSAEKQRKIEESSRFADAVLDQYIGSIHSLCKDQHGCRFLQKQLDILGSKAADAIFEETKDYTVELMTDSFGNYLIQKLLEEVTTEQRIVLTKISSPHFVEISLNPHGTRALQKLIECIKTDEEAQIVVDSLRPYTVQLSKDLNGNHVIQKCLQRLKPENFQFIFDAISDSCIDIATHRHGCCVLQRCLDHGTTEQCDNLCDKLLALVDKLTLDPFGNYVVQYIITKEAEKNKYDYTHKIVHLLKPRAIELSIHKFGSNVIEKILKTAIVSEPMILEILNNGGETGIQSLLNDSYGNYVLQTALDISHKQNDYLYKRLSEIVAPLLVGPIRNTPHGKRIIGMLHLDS
Test: Mg; RNA-MaP; 20 mM Na-HEPES pH 7.4, 30 mM KOAc, 0.75 mM MgCl2, 0.1% Tween-20, 5% glycerol, 0.1 mg/mL BSA, 2 mM DTT; 25 C; 0.0125-409.6 nM protein
Conditions: tags: N-His6-TEV cleaved; C-SNAP kept, Cy3B-labelled; label: tethered on chip by stalled RNA polymerase
RECORDED ENDPOINT: pKd
pKd is defined as minus the log10 of a concentration measured in mol/L.

Solved cases (5 shown):
| BINDER | RESULT VALUE |
| --- | --- |
| Ib_S4_P4E.1_K4.1_C4.1_H4.1_[T1A]_A4.1_F4.1_[T8A]_T4.1 (ssRNA) RNA: UUUGACAACUGAUCGUUCUUUCUAGUAUAUAAUUCUUUCUCGAUCAGUUGUCUUU | 5.77 |
| UCUCUUUGUAAGCUGUCUCUU (ssRNA) [Ic_S1_P4E.1_K4.1_C4.1_H4.1_A4.1_[T5A]_[A6G]_[T7C]_F4.1_[A9G]_T4.1] | 6.26 |
| UCUCUUUGCAUAUUAUCUCUU (ssRNA) [Ia_S1_P4E.1_K4.1_C4.1_H4.1_[T3C]_A4.1_F4.1_T4.1] | 7.12 |
| UCUCUUUGUAAGCUUUUCUCUU (ssRNA) [Ic_S1_P5E.1_K5.1_C5.1_H5.1_A5.1_[T5A]_[T6G]_[A7C]_F5.1_[A10T]_T5.1] | 6.19 |
| Id_ii_S4_P4E.2_K4.1_C4.2_[T-1C]_H4.1_A4.1_F4.1_T4.2_[G10T]_[T11C] (ssRNA) RNA: UUUGACAACUGAUCGUUCUUUCUCCUGUAUAUUAUCUUCUUUCUCGAUCAGUUGUCUUU | 9.50 |

Inquiry: Answer with the recorded pKd of UCUCUUUGUAAUUACUCUCUU (ssRNA) [Ic_S1_P4E.1_K4.1_C4.1_H4.1_A4.1_[T5A]_[A6T]_F4.1_[T8A]_[A9C]_T4.1] only.
Reply text: 6.17

Inquiry: Answer with the recorded pKd of Id_iii_S2_P4E.9_K4.5_C4.3_[T-1G]_H4.1_A4.2_F4.2_T4.2 (ssRNA) RNA: UUUGAUUAAUAUGAUAUCGUUCUUUCUUCGUGUAUUUAAGUUUCUUUCUCGAUAUCAUAUUAAUCUUU only.
Reply text: 6.30

Inquiry: Answer with the recorded pKd of ACAAACUCACACUAUAUUACAAAC (ssRNA) [Id_ii_S3_P3E.4_K3.3_C3.2_[C-2T]_[T-1C]_H3.3_A3.1_F3.1_T3.2_[A10T]] only.
Reply text: 5.68

Inquiry: Answer with the recorded pKd of ACAAACUGUAUUACCCUUAACAAAC (ssRNA) [Ie_S3_P5E.1_K5.1_C5.1_H5.1_A5.1_[+7CCC]_F5.1_T5.1] only.
Reply text: 6.29

Inquiry: Answer with the recorded pKd of UCUCUUACUGUAUAUACUUCUCUU (ssRNA) [Id_ii_S1_P3E.2_K3.1_C3.2_[C-2A]_[T-1C]_H3.1_A3.1_F3.1_T3.2_[T9C]_[A10T]] only.
Reply text: 7.82

Inquiry: Answer with the recorded pKd of UCUCUUUGUAUACAUCUCUU (ssRNA) [Ia_S1_P3E.1_K3.1_C3.1_H3.1_A3.1_F3.1_[T7C]_T3.1] only.
Reply text: 7.35

Inquiry: Answer with the recorded pKd of UCUCUUACUUAUAUAUAUAUCUCUU (ssRNA) [Id_iii_S1_P3E.6_K3.2_C3.3_[T-3A]_H3.2_A3.1_F3.1_T3.2] only.
Reply text: 6.95

Inquiry: Answer with the recorded pKd of Ie_S2_P4E.1_K4.1_C4.1_H4.1_A4.1_F4.1_[+8CC]_T4.1 (ssRNA) RNA: UUUGAUUAAUAUGAUAUCGUUCUUUCUUGUAUAUUCCAUUCUUUCUCGAUAUCAUAUUAAUCUUU only.
Reply text: 8.30

Inquiry: Answer with the recorded pKd of Id_iii_S4_P4E.6_K4.2_C4.3_[T-1A]_H4.2_A4.1_F4.1_T4.2 (ssRNA) RNA: UUUGACAACUGAUCGUUCUUUCUUCAUAUAUAUUAGUUUCUUUCUCGAUCAGUUGUCUUU only.
Reply text: 8.13

Inquiry: Answer with the recorded pKd of Ie_S2_P3E.2_K3.1_C3.2_H3.1_A3.1_F3.1_[+8TTCCT]_T3.2 (ssRNA) RNA: UUUGAUUAAUAUGAUAUCGUUCUUUCUCUUGUAUAUAUUCCUUAUUCUUUCUCGAUAUCAUAUUAAUCUUU only.
Reply text: 8.69

Inquiry: Answer with the recorded pKd of Ib_S4_P5E.1_K5.1_C5.1_H5.1_[T1C]_A5.1_F5.1_[T8C]_T5.1 (ssRNA) RNA: UUUGACAACUGAUCGUUCUUUCUCGUAUUACUAUUCUUUCUCGAUCAGUUGUCUUU only.
Reply text: 6.16
